- Test system: Con-NCI-H82 cell (NCI-H82 transfected with empty virus vector)
- ASSAY_PROCEDURE: Cell viability assay (Promega CellTiter-Glo), inhibitory effect on Con-NCI-H82 cell
- Type: cell-based
- EXPERIMENTAL_PARAMETERS: Homo sapiens; NCI-H82 transfected with empty virus vector (control); CellTiter-Glo; read-out: inhibitory effect on Con-NCI-H82 (IC50)
READOUT_LABEL: IC50 (nM)

# COMPOUND, READOUT_UNIT, IC50
records = [
    ("CCCCc1c2c(OC)c(OC)ccc2cc2[n+]1CCc1cc3c(cc1-2)OCO3 [compound AB31707]", "nM", 1170),
    ("CCCCCCCCCCCCc1c2[n+](cc3c(OC)c(OC)ccc13)CCc1cc3c(cc1-2)OCO3 [compound AB31763]", "nM", 80),
]

P: CCCCCc1c2[n+](cc3c(OC)c(OC)ccc13)CCc1cc3c(cc1-2)OCO3 [compound AB31758]
Q: CCCCCCCCCCCC(=O)Oc1c(OC)ccc2cc3[n+](cc12)CCc1cc2c(cc1-3)OCO2 [compound AB31766]
[in] Exercise: compare P and Q ; which one has the greater IC50? Give the label under which the chosen entry appears.
[out] Q
(Q: 2470 nM, P: 360 nM)
